Target: T1, cynomolgus BLyS (full length, arginine to histidine at position 132) on CHO-K1 cells (cynomolgus, UniProt Q9Y275 1-285 (human entry))
T1 construct: also called cyno BLyS; CHO-K1 cynoBLyS
T1 chain: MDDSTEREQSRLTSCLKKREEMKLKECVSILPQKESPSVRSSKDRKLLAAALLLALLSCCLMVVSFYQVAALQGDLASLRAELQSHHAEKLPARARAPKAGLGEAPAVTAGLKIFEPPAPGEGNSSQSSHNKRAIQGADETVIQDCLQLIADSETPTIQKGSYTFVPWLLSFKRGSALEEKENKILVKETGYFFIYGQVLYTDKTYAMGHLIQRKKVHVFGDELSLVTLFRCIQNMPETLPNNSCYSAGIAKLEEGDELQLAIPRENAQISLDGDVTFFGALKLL
Assay: flow cytometry, CHO-K1 cynoBLyS cells, antibody 0.0213 nM
measurement-kind: MFI (MFI)
Numbers only; they are read as MFI.

• 93C6F10D3 (antibody, V domains shown, Mouse hybridoma monoclonal antibody purified on Protein G) VH: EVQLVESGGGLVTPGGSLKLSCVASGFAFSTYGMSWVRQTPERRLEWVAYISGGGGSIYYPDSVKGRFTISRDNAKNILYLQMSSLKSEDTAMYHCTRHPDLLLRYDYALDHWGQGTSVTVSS VL: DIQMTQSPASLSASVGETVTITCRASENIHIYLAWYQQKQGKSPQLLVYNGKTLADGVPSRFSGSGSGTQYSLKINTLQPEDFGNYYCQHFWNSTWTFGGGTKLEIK = 112

Reported MFI, binder 8E7D9C7F5 (antibody, V domains shown, Mouse hybridoma monoclonal antibody purified on Protein G) VH: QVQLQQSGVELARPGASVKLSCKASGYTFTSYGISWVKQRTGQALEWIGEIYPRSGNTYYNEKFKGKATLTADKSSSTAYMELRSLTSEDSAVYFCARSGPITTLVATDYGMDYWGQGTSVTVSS VL: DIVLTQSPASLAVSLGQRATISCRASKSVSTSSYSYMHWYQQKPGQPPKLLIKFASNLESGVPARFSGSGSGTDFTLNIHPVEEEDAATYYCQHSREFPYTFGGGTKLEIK : ____
165

// data source = patent US20210347873A1
